- Tested on: T-Rex 293 cell line SC3 cells lacking increased expression of androgen receptor protein
- assay_explanation: Cellular growth inhibition assay, T-Rex 293 SC3 cells without doxycycline (CellTiter-Glo, 72 hours)
- Type: cell-based
- experimental_parameters: 72 h, T-Rex 293 cell line SC3 cells not exposed to doxycycline (lacking increased androgen receptor expression)
endpoint_label: GI50

- compound: "Cc1sc2c(c1C)C(c1ccc(OC[C@H]3CC[C@@]4(CCCN(c5ccc(C(=O)N[C@H]6CC[C@H](Oc7ccc(C#N)c(Cl)c7)CC6)nn5)C4)C3)nc1)=N[C@@H](Cc1ncco1)c1nnc(C)n1-2 [I-328]"
  val: "< 500 nM"

Please give GI50, item by item, for the list that follows.
1. Cc1sc2c(c1C)C(c1ccc([C@@H]3C[C@H]3C3CC4(CCN(c5ccc(C(=O)N[C@H]6CC[C@H](Oc7ccc(C#N)c(Cl)c7)CC6)nn5)CC4)C3)cc1)=N[C@@H](Cc1ncco1)c1nnc(C)n1-2 [I-201]
2. CCNC(=O)C[C@@H]1N=C(c2ccc(N3CC(N4CCN(c5ccc(C(=O)N[C@H]6CC[C@H](Oc7ccc(C#N)c(Cl)c7)CC6)nn5)CC4)C3)cc2)c2c(sc(C)c2C)-n2c(C)nnc21 [I-40]
3. Cc1sc2c(c1C)C(c1ccc(N3CC(C4CCN(c5ccc(C(=O)N[C@H]6CC[C@H](Oc7ccc(C#N)c(Cl)c7)CC6)nn5)CC4)C3)cc1)=N[C@@H](Cc1ncco1)c1nnc(C)n1-2 [I-386]
4. Cc1sc2c(c1C)C(c1ccc(C(=O)N(C)CCCc3ccc(C(=O)N[C@H]4CC[C@H](Oc5ccc(C#N)c(Cl)c5)CC4)nn3)cc1)=N[C@H](Cc1ncco1)c1nnc(C)n1-2 [I-321]

> 3000 nM
500 to 1500 nM
< 500 nM
> 3000 nM

====

- System: T-Rex 293 cell line SC3 cells lacking increased expression of androgen receptor protein
- assay_explanation: Cellular growth inhibition assay, T-Rex 293 SC3 cells without doxycycline (CellTiter-Glo, 72 hours)
- Assay type: cell-based
- experimental_parameters: 72 h, T-Rex 293 cell line SC3 cells not exposed to doxycycline (lacking increased androgen receptor expression)
endpoint_label: GI50

// solved cases for GI50 follow
- compound: "Cc1sc2c(c1C)C(c1ccc(N3CCC4(CCN(c5ccc(C(=O)N[C@H]6CC[C@H](Oc7ccc(C#N)c(Cl)c7)CC6)nn5)CC4)C3)cc1)=N[C@@H](Cc1ncco1)c1nnc(C)n1-2"
  GI50: "< 0.5 µM"
- compound: "Cc1sc2c(c1C)C(c1ccc(C3CCC4(CCCN(c5ccc(C(=O)N[C@H]6CC[C@H](Oc7ccc(C#N)c(Cl)c7)CC6)nn5)C4)CC3)cc1)=N[C@@H](C)c1nnc(C)n1-2 (some centres unmarked)"
  GI50: "> 3 µM"
- compound: "Cc1sc2c(c1C)C(c1ccc(C3CCC4(CCCN(c5ccc(C(=O)N[C@H]6CC[C@H](Oc7ccc(C#N)c(Cl)c7)CC6)nn5)C4)CC3)cc1)=NC(C(F)(F)F)c1nnc(C)n1-2 (some centres unmarked)"
  GI50: "> 3 µM"
- compound: "Cc1sc2c(c1C)C(c1ccc(CC[C@@H]3CCCN(c4ccc(C(=O)N[C@H]5CC[C@H](Oc6ccc(C#N)c(Cl)c6)CC5)nn4)C3)cc1)=N[C@@H](Cc1ncco1)c1nnc(C)n1-2"
  GI50: "< 0.5 µM"
- compound: "Cc1sc2c(c1C)C(c1cccc(CC3CC4(CCCN(c5ccc(C(=O)N[C@H]6CC[C@H](Oc7ccc(C#N)c(Cl)c7)CC6)nn5)C4)C3)c1)=N[C@@H](C)c1nnc(C)n1-2 (some centres unmarked)"
  GI50: "> 3 µM"
- compound: "Cc1sc2c(c1C)C(c1ccc(COC3CCC4(C3)CN(c3ccc(C(=O)N[C@H]5CC[C@H](Oc6ccc(C#N)c(Cl)c6)CC5)nn3)CCO4)cc1)=N[C@@H](C)c1nnc(C)n1-2 (some centres unmarked)"
  GI50: "< 0.5 µM"
- compound: "Cc1sc2c(c1C)C(c1ccc(C[C@H]3C[C@]4(CCCN(c5ccc(C(=O)N[C@H]6CC[C@H](Oc7ccc(C#N)c(Cl)c7)CC6)nn5)C4)C3)nc1)=N[C@H](Cc1ncco1)c1nnc(C)n1-2"
  GI50: "> 3 µM"
- compound: "CCNC(=O)C[C@@H]1N=C(c2ccc(N3CC(N(C)C4CCN(c5ccc(C(=O)N[C@H]6CC[C@H](Oc7ccc(C#N)c(Cl)c7)CC6)nn5)CC4)C3)cc2)c2c(sc(C)c2C)-n2c(C)nnc21"
  GI50: "> 3 µM"
- compound: "Cc1sc2c(c1C)C(c1ccc(NCCCN3CCN(c4ncc(C(=O)N[C@H]5CC[C@H](Oc6ccc(C#N)c(Cl)c6)CC5)cn4)CC3)cc1)=NC(Cc1ncco1)c1nnc(C)n1-2 (some centres unmarked)"
  GI50: "< 0.5 µM"
- compound: "Cc1sc2c(c1C)C(c1ccc(CCOC3CCN(c4ccc(C(=O)N[C@H]5CC[C@H](Oc6ccc(C#N)c(Cl)c6)CC5)nn4)CC3)cc1)=NC(Cc1ncco1)c1nnc(C)n1-2 (some centres unmarked)"
  GI50: "> 3 µM"

Please give GI50, item by item, for the list that follows.
1. Cc1sc2c(c1C)C(c1ccc(N[C@H]3CCCCN(c4ncc(C(=O)N[C@H]5CC[C@H](Oc6ccc(C#N)c(Cl)c6)CC5)cn4)C3)cc1)=NC(Cc1ncco1)c1nnc(C)n1-2 (some centres unmarked)
2. Cc1sc2c(c1C)C(c1ccc(C3CCC4(CC3)CCN(c3ccc(C(=O)N[C@H]5CC[C@H](Oc6ccc(C#N)c(Cl)c6)CC5)nn3)CC4)cc1)=N[C@@H](C)c1nnc(C)n1-2
3. Cc1sc2c(c1C)C(c1ccc(-c3ccc(C4CCN(c5ccc(C(=O)NC6CCC(Oc7ccc(C#N)c(Cl)c7)CC6)nn5)CC4)cc3)cc1)=N[C@H](Cc1ncco1)c1nnc(C)n1-2 (some centres unmarked)
4. Cc1sc2c(c1C)C(c1ccc(OC3CC4(C3)CC3(CCN(c5ccc(C(=O)N[C@H]6CC[C@H](Oc7ccc(C#N)c(Cl)c7)CC6)nn5)CC3)C4)nc1)=N[C@@H](C)c1nnc(C)n1-2
5. Cc1sc2c(c1C)C(c1ccc(C(=O)N3CCC[C@@H](Cc4ccc(C(=O)N[C@H]5CC[C@H](Oc6ccc(C#N)c(Cl)c6)CC5)nn4)C3)cc1)=N[C@H](Cc1ncco1)c1nnc(C)n1-2
6. Cc1sc2c(c1C)C(c1ccc(N3CC(N4CCN(c5ncc(C(=O)N[C@H]6CC[C@H](Oc7ccc(C#N)c(Cl)c7)CC6)cn5)CC4)C3)cc1)=NC(Cc1ncco1)c1nnc(C)n1-2 (some centres unmarked)
7. COCC[C@@H]1N=C(c2ccc(C#CC3CC4(C3)CN(c3ccc(C(=O)N[C@H]5CC[C@H](Oc6ccc(C#N)c(Cl)c6)CC5)nn3)C4)cc2)c2c(sc(C)c2C)-n2c(C)nnc21
8. CCNC(=O)C[C@@H]1N=C(c2ccc(OCCOCCOC3CCN(c4ccc(C(=O)N[C@H]5CC[C@H](Oc6ccc(C#N)c(Cl)c6)CC5)nn4)CC3)cc2)c2c(sc(C)c2C)-n2c(C)nnc21

1. > 3 µM
2. < 0.5 µM
3. > 3 µM
4. > 3 µM
5. > 3 µM
6. < 0.5 µM
7. < 0.5 µM
8. 0.5 to 1.5 µM

Please give GI50, item by item, for the list that follows.
1. Cc1sc2c(c1C)C(c1ccc([C@H]3C[C@@H]([C@H]4CCCN(c5ccc(C(=O)N[C@H]6CC[C@H](Oc7ccc(C#N)c(Cl)c7)CC6)nn5)C4)C3)cc1)=N[C@@H](Cc1ncco1)c1nnc(C)n1-2
2. Cc1sc2c(c1C)C(c1ccc(C3CC(N4CCN(c5ccc(C(=O)N[C@H]6CC[C@H](Oc7ccc(C#N)c(Cl)c7)CC6)nn5)CC4)C3)cc1)=NC1(CC1)c1nnc(C)n1-2 (some centres unmarked)

1. < 0.5 µM
2. < 0.5 µM

====

Assign GI50 to each entry below.
- Tested on: T-Rex 293 cell line SC3 cells lacking increased expression of androgen receptor protein
- assay_explanation: Cellular growth inhibition assay, T-Rex 293 SC3 cells without doxycycline (CellTiter-Glo, 72 hours)
- Type: cell-based
- experimental_parameters: 72 h, T-Rex 293 cell line SC3 cells not exposed to doxycycline (lacking increased androgen receptor expression)

- molecule: "Cc1sc2c(c1C)C(c1ccc(OC3CC4(C3)CN(c3ccc(C(=O)N[C@H]5CC[C@H](Oc6ccc(C#N)c(Cl)c6)CC5)nn3)C4)cc1)=N[C@@H](Cc1ncco1)c1nnc(C)n1-2 [I-91]"
  GI50: "< 500 nM"
- molecule: "Cc1sc2c(c1C)C(c1ccc(N3CCC4(CCCN(c5ncc(C(=O)N[C@H]6CC[C@H](Oc7ccc(C#N)c(Cl)c7)CC6)cn5)C4)C3)cc1)=NC(Cc1ncco1)c1nnc(C)n1-2 (some centres unmarked) [I-804]"
  GI50: "> 3000 nM"
- molecule: "Cc1sc2c(c1C)C(c1ccc(N3CC(C4CCN(c5ccc(C(=O)N[C@H]6CC[C@H](Oc7ccc(C#N)c(Cl)c7)CC6)nn5)CC4)C3)nc1)=NCc1nnc(C)n1-2 [I-478]"
  GI50: "> 3000 nM"
- molecule: "Cc1sc2c(c1C)C(c1ccc(N(C)CC(=O)N3CCC(c4ccc(C(=O)N[C@H]5CC[C@H](Oc6ccc(C#N)c(Cl)c6)CC5)nn4)CC3)cc1)=N[C@@H](Cc1ncco1)c1nnc(C)n1-2 [I-312]"
  GI50: "> 3000 nM"
- molecule: "Cc1sc2c(c1C)C(c1ccc(C[C@H]3CCCN(c4ccc(C(=O)N[C@H]5CC[C@H](Oc6ccc(C#N)c(Cl)c6)CC5)nn4)C3)cc1)=N[C@@H](Cc1ncco1)c1nnc(C)n1-2 [I-253]"
  GI50: "< 500 nM"

Please give GI50, item by item, for the list that follows.
1. Cc1sc2c(c1C)C(c1ccc(N3CCC[C@H](C(=O)N4CCC[C@@H](c5ccc(C(=O)N[C@H]6CC[C@H](Oc7ccc(C#N)c(Cl)c7)CC6)nn5)C4)C3)cc1)=N[C@H](Cc1ncco1)c1nnc(C)n1-2 [I-304]
2. Cc1sc2c(c1C)C(c1ccc(C#CCC3CCN(c4ccc(C(=O)N[C@H]5CC[C@H](Oc6ccc(C#N)c(Cl)c6)CC5)nn4)CC3)cc1)=N[C@H](Cc1ncco1)c1nnc(C)n1-2 [I-137]

1. > 3000 nM
2. > 3000 nM
